# Test system: SK-OV-3 ovarian
# assay-info: NCI tumour cell line growth inhibition, 48 h
Listing of recorded GI50 by entry.

Sample records with GI50:
COC(=O)c1ccc(NC(N)=NCCC(C)(C)c2ccc(C(F)(F)F)cc2)nc1    6.63 µM
CN(C)C1C(=O)C(C(N)=O)=C(O)C2(O)C(=O)C3=C(O)c4c(O)cccc4C(C)(O)C3CC12.[Cl][Sb]([Cl])[Cl] (stereo not given)    3.79 µM
Cc1ccc(C(=O)Nc2ccc(Oc3cc4cnn(C)c4cc3-c3cn[nH]c3)c(F)c2)c(=O)n1-c1ccc(F)cc1    > 100 µM
CCOC(=O)c1cc(C(=O)c2ccc(OC)c(OC)c2)n2c1ccc1ccc3cccnc3c12    4.02 µM
COc1ccc([C@@]23Oc4cc(OC)cc(OC)c4[C@]2(O)[C@H](O)[C@H](C(=O)N(C)C)[C@H]3c2ccccc2)cc1    0.0157 µM

Request the reported GI50 associated with `O=c1[nH]c(=S)[nH]c(O)c1/C=C1\C=Nc2ccccc21`
15.7 µM

Request the reported GI50 associated with `CCOC(=O)[C@@H](C)C[C@H](Cc1ccccc1)NC(=O)c1csc([C@@H](C[C@H](C(C)C)N(C)C(=O)CNC(=O)[C@H]2CCCCN2C)OC(C)=O)n1`
0.835 µM

Request the reported GI50 associated with `O=C(CI)NC(=O)NC(=O)NCc1ccccc1`
15.4 µM

Request the reported GI50 associated with `CCc1ccc(Oc2c(-c3ccc(OCc4ccc(Cl)cc4)cc3O)nn(C)c2C(F)(F)F)cc1`
1.63 µM

Request the reported GI50 associated with C/C(=C/CCC(C)[C@@H]1CC[C@]2(C)C3=C(CC[C@@]12C)[C@@]1(C)CCC(=O)C(C)(C)[C@@H]1CC3)C(=O)O (stereo not given in full)
1.78 µM

====

# Test system: SW-620 colon
# assay-info: NCI tumour cell line growth inhibition, 48 h
recorded-metric: TGI (µM)
Enter your answer as a number in µM; do not include the unit.

O=C(Nc1ccccc1C(=O)NC(=O)c1ccccc1NC(=O)c1ccccc1)c1ccccc1    18.6

Next up:
Request the reported TGI associated with COS(=O)c1cc(Cl)cc(Cl)c1OC(=O)CSSCC(=O)Oc1c(Cl)cc(Cl)cc1S(=O)OC (stereo not given)
58.4

====

# Tested on: NCI/ADR-RES ovarian
# assay-info: NCI tumour cell line growth inhibition, 48 h
Listing of recorded TGI by entry.

Sample records with TGI:
O=C(Nc1ccc(-n2cc(-c3ccncc3)c(-c3ccc(Cl)c(O)c3)n2)cc1)c1cc(C(F)(F)F)cc(C(F)(F)F)c1    > 100 µM
CCOC(=O)[C@@H](C)C[C@H](Cc1ccccc1)NC(=O)c1csc([C@@H](C[C@H](C(C)C)N(C)C(=O)CNC(=O)[C@H]2CCCCN2C)OC(C)=O)n1    > 14.3 µM

Next up:
Request the reported TGI associated with `O=c1c2[nH]cnc2n(-c2ccccc2)c(=S)n1-c1ccccc1`
> 100 µM

====

# Tested on: SF-295 CNS
# assay-info: NCI tumour cell line growth inhibition, 48 h
Listing of recorded TGI by entry.

Sample records with TGI:
Cc1cccc2c1nc1n2C(=O)c2ccccc2-1    > 100 µM
CN(C)CCNC(=O)Nc1ccc(N(C)c2ccnc(Nc3ccc(CS(C)(=O)=O)cc3)n2)cc1    > 25 µM

Request the reported TGI associated with O=C1C=CC2(CCC23C=CC(=O)O3)O1 (configuration not stated)
> 100 µM

Request the reported TGI associated with CCOC(=O)C1=C(C)N(NC(N)=O)C2(N)N(NC(N)=O)C(C)=C(C(=O)OCC)C12C#N (configuration not stated)
> 100 µM

Request the reported TGI associated with `Nc1c(C(=O)O)c2ccc([N+](=O)[O-])cc2c(=O)n1-c1nc2ccccc2s1`
> 100 µM

====

# Test system: SNB-19 CNS
# assay-info: NCI tumour cell line growth inhibition, 48 h
recorded-metric: TGI

Sample records with TGI:
Cc1cc(-c2ccc(N=Nc3ccc4c(S(=O)(=O)O)cc(S(=O)(=O)O)c(N)c4c3O)c(C)c2)ccc1N=Nc1ccc2c(S(=O)(=O)O)cc(S(=O)(=O)O)c(N)c2c1O    > 100 µM
CCOC(=O)[C@@H](C)C[C@H](Cc1ccccc1)NC(=O)c1csc([C@@H](C[C@H](C(C)C)N(C)C(=O)CNC(=O)[C@H]2CCCCN2C)OC(C)=O)n1    > 14.3 µM
CC(C)(C)O/N=C/c1cc(NC(=S)c2ccccc2)ccc1Cl    63.8 µM
COc1ccc(S(=O)(=O)NC(CCC(=O)NC(N)=O)C(=O)NC(N)=O)cc1 (stereo not given)    > 100 µM
CCOC(=O)C[C@@]12CCCN[C@]1(C)CCc1ccccc12    > 100 µM
O=c1c2ccc(Cl)cc2oc2c(CSc3ccccc3)cccc12    > 86.5 µM

Request the reported TGI associated with Cc1ccc(-n2nc(C(OC3OC(CO)C(O)C(O)C3O)C(O)CO)c3nc4cc(C)c(C)cc4nc32)cc1 (stereo not given)
> 100 µM

Request the reported TGI associated with `N#CN1CC[C@H](C(=O)Nc2ncc(-c3ccccc3)s2)C1`
11.3 µM

Request the reported TGI associated with Cc1cc(OC2OC(CO)C(O)C(O)C2O)ccc1O (stereo not given)
> 100 µM

Request the reported TGI associated with `CN1CCCc2nc3ccccc3n2C1`
> 100 µM

Request the reported TGI associated with `Cc1ccc(NC(=O)CC/C(CC(=O)C(C)(C)C)=N/NC(=O)c2cc3ccccc3cc2O)cc1C`
> 100 µM

Request the reported TGI associated with `COc1ccc(N(CC(=O)O)N=O)cc1`
> 100 µM

Request the reported TGI associated with `Clc1[nH]nc2ccccc12`
> 100 µM

Request the reported TGI associated with CCCCCCCCCC1CC(=O)OC23CCCC(=O)C12O3 (stereo not given)
> 100 µM

Request the reported TGI associated with `O=c1[nH]c2ccccc2cc1-c1nnc(Cc2ccccc2)o1`
38.1 µM

Request the reported TGI associated with `CC(=O)Oc1cc2c(cc1OCC(F)(F)F)[C@H]1CC[C@]3(C)[C@@H](OC(C)=O)CC[C@H]3[C@@H]1CC2=O`
> 67 µM

Request the reported TGI associated with `Cc1ccc(S(=O)(=O)OCCN(CCOS(=O)(=O)c2ccc(C)cc2)c2ccc(C=O)cc2)cc1`
> 100 µM

Request the reported TGI associated with `O=C(Nc1nc2ccc(S(=O)(=O)Nc3ccc(C4(C(F)(F)F)CC4)cc3)cc2[nH]1)c1cnccn1`
22 µM

Request the reported TGI associated with `C=C1C(=O)O[C@@H]2C[C@@]3(C)[C@H](O)CCC(=C)[C@@H]3C[C@H]12`
46.9 µM

Request the reported TGI associated with `Cc1ccc2ccc3c4ccccc4ccc3c2c1`
> 100 µM

====

# System: OVCAR-5 ovarian
# assay-info: NCI tumour cell line growth inhibition, 48 h
Listing of recorded TGI by entry.

Sample records with TGI:
O=c1[nH]ncc2[nH]c3c(c12)CCc1ccccc1-3    > 100 µM
O=c1c2ccccc2nc(-c2cccc(Cl)c2)n1NC1OC(CO)C(O)C(O)C1O (stereo not drawn)    > 100 µM

Next up:
Request the reported TGI associated with `CCOC(=O)C[C@@]12CCCN[C@]1(C)CCc1ccccc12`
> 100 µM

====

# Test system: PC-3 prostate
# assay-info: NCI tumour cell line growth inhibition, 48 h
recorded-metric: TGI

Sample records with TGI:
OCc1ccc(-c2ccc(-c3ccc(CO)o3)o2)o1    > 100 µM
COC(=O)[C@H](C)NC(=O)[C@H](NS(=O)(=O)c1nc2ccccc2s1)c1ccccc1    > 100 µM
NC1=NC(c2ccccc2Cl)c2c(n[nH]c2N)N1 (configuration not stated)    > 100 µM
O=c1[nH]ncc2[nH]c3c(c12)CCc1ccccc1-3    > 100 µM

Request the reported TGI associated with CC1=NC(=N)N=C(C)C1N=Nc1ccc2nc(C)[nH]c2c1 (configuration not stated)
> 100 µM

Request the reported TGI associated with `CCNC(=S)N/N=C(/C)c1cccc(/C(C)=N\NC(=S)NCC)n1`
> 100 µM

Request the reported TGI associated with `O=C1Nc2ccc(-c3cccnc3)cc2/C1=C/c1cc(Br)c(O)c(Br)c1`
> 25 µM

Request the reported TGI associated with `O=C(OCCN=c1c2ccccc2ccc2ccccc12)c1cc([N+](=O)[O-])cc([N+](=O)[O-])c1`
> 100 µM

Request the reported TGI associated with `O=C(CCCCN1CCN(CCCCC(=O)Nc2ccccc2C#C/C=C\C#Cc2ccccc2C(F)(F)F)CC1)Nc1ccccc1C#C/C=C\C#Cc1ccccc1C(F)(F)F`
> 50 µM

Request the reported TGI associated with CCCCCCCCCCCCOCC(COP(=O)(O)OCCN=[N+]=[N-])OC(=O)CCCCCCCCCCC (configuration not stated)
> 100 µM

Request the reported TGI associated with `COc1cc2c(c3c1c(=O)c1ccccc1n3C)C=C([N+](=O)[O-])C(C)(C)O2`
> 100 µM

Request the reported TGI associated with `COc1ccc(O[C@H](CO)C[C@@H]2COC(C)(C)O2)cc1`
> 100 µM
